systemUnderTest: T1, human complement C2 (human, UniProt P06681 21-752)
T1 construct: Recombinant full-length human C2 with C-terminal 8x His tag, purified from Expi293F supernatant; also called human C2; huC2
T1 sequence: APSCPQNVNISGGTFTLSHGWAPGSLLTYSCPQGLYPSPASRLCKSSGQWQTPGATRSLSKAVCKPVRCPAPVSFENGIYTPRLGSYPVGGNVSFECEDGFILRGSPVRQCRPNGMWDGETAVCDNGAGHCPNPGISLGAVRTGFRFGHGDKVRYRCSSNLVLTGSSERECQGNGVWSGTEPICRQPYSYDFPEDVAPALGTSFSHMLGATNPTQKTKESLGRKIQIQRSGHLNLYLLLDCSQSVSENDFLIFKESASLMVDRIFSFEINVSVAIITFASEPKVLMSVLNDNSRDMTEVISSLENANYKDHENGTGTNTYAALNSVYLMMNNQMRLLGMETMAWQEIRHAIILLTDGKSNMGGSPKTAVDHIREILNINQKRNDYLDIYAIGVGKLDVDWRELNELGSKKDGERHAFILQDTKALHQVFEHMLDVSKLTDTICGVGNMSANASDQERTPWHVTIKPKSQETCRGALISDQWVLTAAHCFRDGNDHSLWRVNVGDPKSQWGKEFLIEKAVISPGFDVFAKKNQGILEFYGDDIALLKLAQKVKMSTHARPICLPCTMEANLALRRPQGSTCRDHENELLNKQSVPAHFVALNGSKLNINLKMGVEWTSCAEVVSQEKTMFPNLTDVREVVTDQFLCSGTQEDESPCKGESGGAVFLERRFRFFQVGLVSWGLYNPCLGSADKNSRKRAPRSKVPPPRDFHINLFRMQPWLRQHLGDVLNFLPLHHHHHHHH
experimentalDetails: SPR, mAb captured, C2 analyte, HBS-EP, pH 7.3
Quick reference: pKd of the listed items.
The read-out pKd is expressed as -log10 of concentration in moles per litre.

RF16-214 (antibody, V domains shown) VH: EVQLLESGGGLVQPGGSLRLSCAASGFTFSWYQMMWVRQAPGKGLEWVSRIYPSGGGTAYADSVKGRFTISRDNSKNTLYLQMNSLRAEDTAVYYCARDAGYGDNWGQGTLVTVSS VL: QSALTQPPSVSVSPGQTASITCSGDKLGEKYASWYQQKAGQSPVMVIYQDRKRPSGIPERFSGSNSGNTATLTISGTQAMDEADYYCQAWDTRAVVFGGGTKLTVLG: 7.51
RF16-214G (antibody, V domains shown) VH: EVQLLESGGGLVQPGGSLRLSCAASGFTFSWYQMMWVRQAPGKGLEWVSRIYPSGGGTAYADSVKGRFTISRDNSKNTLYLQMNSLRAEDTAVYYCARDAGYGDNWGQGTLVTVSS VL: SYELTQPPSVSVSPGQTASITCSGDKLGEKYASWYQQKPGQSPVLVIYQDRKRPSGIPERFSGSNSGNTATLTISGTQAMDEADYYCQAWDTRAVVFGGGTKLTVLG: 7.60
RF16-191G (antibody, V domains shown) VH: EVQLLESGGGLVQPGGSLRLSCAASGFTFSKYWMGWVRQAPGKGLEWVSSIYSSGGWTYYADSVKGRFTISRDNSKNTLYLQMNSLRAEDTAVYYCARRPRSFSGSYYRAFDIWGQGTMVTVSS VL: DIQMTQSPSSLSASVGDRVTITCRASQSITDYLNWYQQKPGKAPKLLIYAASSLQSGVPSRFSGSGSGTDFTLTISSLQPEDFATYYCQQSYSSSITFGQGTRLDLKR: 7.72

## Task // returns reported pKd for input RF16-203G (antibody, V domains shown) VH: EVQLLESGGGLVQPGGSLRLSCAASGFTFSRYYMMWVRQAPGKGLEWVSSIGSSGGTTNYADSVKGRFTISRDNSKNTLYLQMNSLRAEDTAVYYCAKGGMVLGVVNIWGQGTLVTVSS VL: SYELTQPPSVSVSPGQTASITCSGDKLGEKYVSWYQQKPGQSPVLVIYQDIKRPSGIPERFSGSNSGNTATLTISGTQAMDEADYYCQTWGTGGIQVFGGGTKLTVLG
## Result 6.30

## Task // returns reported pKd for input RF16-242 (antibody, V domains shown) VH: EVQLLQSGAEVKKPGESLKISCKGSGYSFTSYWIGWVRQMPGKGLEWMGIIYPGDSDTRYSPSFQGQVTISADKSISTAYLQWSSLKASDTAMYYCARRGHYGDYFDYWGQGTLVTVSS VL: SYELTQPPSVSVSPGQTARITCSGDALPKKYAYWYHQKSGQAPVLVIYEDRRRPSEIPERFSGSSSGTMATLTITGAQVEDEGVYFCYSRDRAGNQRVFGGGTQLTVLG
## Result 8.15
